Data credit: ChEMBL document CHEMBL1201862

Property: GI50; scope: individual compounds
- Tested on: SF-539
- assay.notes: NCI tumour cell line growth inhibition, 48 h
Calls of active or inactive are those of the source. Rule as the data show it: active = GI50 up to about 1.1 µM and inactive = higher.

Task: So what GI50 did Cc1cccc(O)c1-c1nnc(CCCCCCCCc2nnc(-c3c(C)cccc3O)n2N)n1N get with SF-539?
Result: > 96.4 µM (inactive)

Task: And the next one, COc1cccc2c1C(=O)OC2c1cccc2ccccc12 (configuration not stated) ?
Result: 63.7 µM (inactive)

Task: And the next one, N#CCCC1(CCC#N)CCCCCCC(CCC#N)(CCC#N)C(O)C1O (configuration not stated) ?
Result: > 100 µM (inactive)

Task: And the next one, O=C(/C=C/c1ccccc1)Oc1cccc(Br)c1 ?
Result: 39.9 µM (inactive)

Task: And the next one, CCSCCCN(CCCSCC)CCCSCC ?
Result: > 100 µM (inactive)

Task: And the next one, CC1(CO)C(=O)OC12CCCCC2 (configuration not stated) ?
Result: > 100 µM (inactive)

Task: And the next one, CCOC(=O)CCc1c(C)c2c(OC(C)=O)cc(OC(C)=O)cc2oc1=O ?
Result: 70 µM (inactive)

Task: And the next one, COC(=O)CC(=O)NCC1=CCC(=O)CC1 ?
Result: > 100 µM (inactive)

Task: And the next one, CC1CNc2ccccc2N=C1NN (configuration not stated) ?
Result: > 100 µM (inactive)

Task: And the next one, CC(C)C(NCc1c2ccccc2[n+](C)c2ccccc12)C(=O)O (configuration not stated) ?
Result: 5.94 µM (inactive)

Task: And the next one, [N-]=[N+]=CC(=O)OCC1NC(=O)C(COC(=O)C=[N+]=[N-])NC1=O (configuration not stated) ?
Result: > 100 µM (inactive)

Task: And the next one, CC1(C)NC2C(=O)c3c([nH]c4ccccc34)[C@]3(C)CCC1CC23 (some centres not stated) ?
Result: > 100 µM (inactive)
